Origin of measurements: patent US20170240592A1

# PROCEDURE_SUMMARY: plasmacytoma model, subcutaneous U266 myeloma xenografts
# Assay type: in vivo, NOD/SCID mice
# APPLIED_CONDITIONS: male, NOD/SCID (NOD.CB17-Prkdc^scid/IcrCrl), mouse, plasma, sc, 14.5 mg/kg/day; continual infusion via osmotic pumps, 14.5 mg/kg/d; SEM, n=16; read-out: plasma concentration at the steady state
RECORDED_METRIC: level at time molar

The molecule CC(=O)N[C@H](Cc1ccc(O)cc1)C(=O)N[C@H](CCCNC(=N)N)C(=O)N[C@H](Cc1ccccc1)C(N)=O showed level at time molar equal to ~1 µM

----------
# ASSAYED_SYSTEM: GST-MKK7 (full-length human MKK7 fused to an N-terminal GST tag) (human)
# PROCEDURE_SUMMARY: ELISA Gadd45β/MKK7 competition; without serum pre-incubation
RECORDED_METRIC: IC50 (nM)
Expressed in nM, but write only the number.

DTP3 (Acetyl-Tyr-Arg-Phe-NH2, all residues in the D configuration) has a reported IC50 of 0.16
